Target: α2A (Homo sapiens)
Sequence (P08913 whole entry): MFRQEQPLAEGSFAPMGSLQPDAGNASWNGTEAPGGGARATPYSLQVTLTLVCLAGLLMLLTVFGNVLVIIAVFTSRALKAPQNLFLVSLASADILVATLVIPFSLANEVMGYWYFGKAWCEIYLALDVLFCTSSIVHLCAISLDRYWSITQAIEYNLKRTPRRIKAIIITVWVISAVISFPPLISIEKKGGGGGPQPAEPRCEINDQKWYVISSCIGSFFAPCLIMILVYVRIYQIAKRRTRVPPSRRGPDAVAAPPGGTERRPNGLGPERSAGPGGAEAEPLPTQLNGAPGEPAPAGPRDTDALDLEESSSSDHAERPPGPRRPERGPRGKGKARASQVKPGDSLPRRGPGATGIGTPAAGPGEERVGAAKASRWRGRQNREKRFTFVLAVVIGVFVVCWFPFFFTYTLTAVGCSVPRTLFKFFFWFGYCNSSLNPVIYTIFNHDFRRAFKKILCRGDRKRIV
PROPERTY NAME: Ki (nM)
Quick note: give the figure in nM, leave out the unit.

Form field, Ki with α2A (Homo sapiens), item C[C@@]1(O)CC2CC1[C@@H]1C(=O)N(CC3CCCC[C@H]3CN3CCN(c4nsc5ccccc45)CC3)C(=O)[C@H]21 (stereo in doubt) : 59

----------
Biological target: 5HT1A (native) (Homo sapiens)
Sequence (P08908 whole entry): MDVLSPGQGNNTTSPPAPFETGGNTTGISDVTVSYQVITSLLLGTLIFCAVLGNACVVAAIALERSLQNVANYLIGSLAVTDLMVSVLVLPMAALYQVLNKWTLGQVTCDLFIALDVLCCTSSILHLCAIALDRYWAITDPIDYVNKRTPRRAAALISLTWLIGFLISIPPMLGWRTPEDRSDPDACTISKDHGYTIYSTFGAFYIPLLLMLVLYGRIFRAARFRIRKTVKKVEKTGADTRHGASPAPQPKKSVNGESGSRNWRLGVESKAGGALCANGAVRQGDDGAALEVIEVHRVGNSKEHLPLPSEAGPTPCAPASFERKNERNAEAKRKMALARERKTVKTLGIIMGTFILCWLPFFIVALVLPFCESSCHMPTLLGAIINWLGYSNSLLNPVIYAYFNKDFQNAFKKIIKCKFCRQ
PROPERTY NAME: Ki (nM)
Just the number please, in nM, no unit attached.

Record C[C@@]1(O)CC2CC1[C@@H]1C(=O)N(CC3CCCC[C@H]3CN3CCN(c4nsc5ccccc45)CC3)C(=O)[C@H]21 (stereo in doubt) has 5HT1A (native) (Homo sapiens) Ki equal to 8

----------
Target sequence: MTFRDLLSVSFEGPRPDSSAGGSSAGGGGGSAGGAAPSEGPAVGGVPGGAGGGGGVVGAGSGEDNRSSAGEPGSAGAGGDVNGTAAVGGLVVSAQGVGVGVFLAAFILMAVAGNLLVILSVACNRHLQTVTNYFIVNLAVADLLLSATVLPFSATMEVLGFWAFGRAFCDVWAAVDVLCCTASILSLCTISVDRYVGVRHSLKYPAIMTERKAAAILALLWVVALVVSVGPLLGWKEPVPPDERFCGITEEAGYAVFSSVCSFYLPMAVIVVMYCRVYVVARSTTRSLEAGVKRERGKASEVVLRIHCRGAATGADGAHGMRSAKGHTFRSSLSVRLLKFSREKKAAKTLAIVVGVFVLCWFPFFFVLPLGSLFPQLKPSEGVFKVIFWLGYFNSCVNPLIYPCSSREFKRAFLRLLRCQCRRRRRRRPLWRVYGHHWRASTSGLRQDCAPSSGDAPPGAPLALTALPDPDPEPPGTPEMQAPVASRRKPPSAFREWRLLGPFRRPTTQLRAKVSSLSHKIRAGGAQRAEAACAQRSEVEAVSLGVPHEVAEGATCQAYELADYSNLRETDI
PROPERTY NAME: pKi
Kindly note that pKi refers to -log10 of the concentration in mol/L and answer with the value alone.

GET /value?item= C[C@@]1(O)CC2CC1[C@@H]1C(=O)N(CC3CCCC[C@H]3CN3CCN(c4nsc5ccccc45)CC3)C(=O)[C@H]21 (stereo in doubt) &field=pKi returns 7.09

----------
Molecular target: 5HT2C (Homo sapiens)
Sequence (P28335 33-458): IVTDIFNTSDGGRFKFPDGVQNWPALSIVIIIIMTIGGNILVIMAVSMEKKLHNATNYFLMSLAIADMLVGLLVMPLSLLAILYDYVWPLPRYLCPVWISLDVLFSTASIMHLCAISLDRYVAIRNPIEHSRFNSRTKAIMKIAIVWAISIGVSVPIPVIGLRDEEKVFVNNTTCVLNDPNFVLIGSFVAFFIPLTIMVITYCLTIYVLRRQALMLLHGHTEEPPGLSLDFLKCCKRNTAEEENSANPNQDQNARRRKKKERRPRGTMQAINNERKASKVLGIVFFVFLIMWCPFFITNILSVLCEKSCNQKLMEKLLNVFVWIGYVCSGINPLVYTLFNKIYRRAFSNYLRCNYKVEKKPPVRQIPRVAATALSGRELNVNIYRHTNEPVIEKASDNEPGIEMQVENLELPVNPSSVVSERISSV
PROPERTY NAME: Ki (nM)
Kindly provide the numeric value in nM only, without the unit symbol.

Lab book: Ki of C[C@@]1(O)CC2CC1[C@@H]1C(=O)N(CC3CCCC[C@H]3CN3CCN(c4nsc5ccccc45)CC3)C(=O)[C@H]21 (stereo in doubt) noted as 16

----------
Target: D1 (Homo sapiens, UniProt P21728)
Sequence (P21728 whole entry): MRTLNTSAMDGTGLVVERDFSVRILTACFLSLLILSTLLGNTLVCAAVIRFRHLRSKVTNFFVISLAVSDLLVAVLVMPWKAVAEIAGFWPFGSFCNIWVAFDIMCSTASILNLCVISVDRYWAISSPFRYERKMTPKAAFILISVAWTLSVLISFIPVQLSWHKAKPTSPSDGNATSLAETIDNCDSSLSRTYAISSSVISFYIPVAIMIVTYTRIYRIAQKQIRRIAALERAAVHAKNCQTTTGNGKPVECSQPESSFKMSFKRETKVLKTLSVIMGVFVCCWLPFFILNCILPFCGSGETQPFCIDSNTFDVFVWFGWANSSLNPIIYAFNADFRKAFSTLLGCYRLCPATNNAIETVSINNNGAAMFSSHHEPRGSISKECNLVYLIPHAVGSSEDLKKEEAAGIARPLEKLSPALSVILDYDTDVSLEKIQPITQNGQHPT
Assay: In Vitro Affinity (Ki) on Human Receptors: D1
Conditions: human receptor
PROPERTY NAME: pKi
In textbook form, pKi equals minus log to base ten of the concentration in mol/L.

For record C[C@@]1(O)CC2CC1[C@@H]1C(=O)N(CC3CCCC[C@H]3CN3CCN(c4nsc5ccccc45)CC3)C(=O)[C@H]21 (stereo in doubt) the listed pKi is 6.34

----------
Target: hERG (Homo sapiens)
Sequence (Q12809 whole entry): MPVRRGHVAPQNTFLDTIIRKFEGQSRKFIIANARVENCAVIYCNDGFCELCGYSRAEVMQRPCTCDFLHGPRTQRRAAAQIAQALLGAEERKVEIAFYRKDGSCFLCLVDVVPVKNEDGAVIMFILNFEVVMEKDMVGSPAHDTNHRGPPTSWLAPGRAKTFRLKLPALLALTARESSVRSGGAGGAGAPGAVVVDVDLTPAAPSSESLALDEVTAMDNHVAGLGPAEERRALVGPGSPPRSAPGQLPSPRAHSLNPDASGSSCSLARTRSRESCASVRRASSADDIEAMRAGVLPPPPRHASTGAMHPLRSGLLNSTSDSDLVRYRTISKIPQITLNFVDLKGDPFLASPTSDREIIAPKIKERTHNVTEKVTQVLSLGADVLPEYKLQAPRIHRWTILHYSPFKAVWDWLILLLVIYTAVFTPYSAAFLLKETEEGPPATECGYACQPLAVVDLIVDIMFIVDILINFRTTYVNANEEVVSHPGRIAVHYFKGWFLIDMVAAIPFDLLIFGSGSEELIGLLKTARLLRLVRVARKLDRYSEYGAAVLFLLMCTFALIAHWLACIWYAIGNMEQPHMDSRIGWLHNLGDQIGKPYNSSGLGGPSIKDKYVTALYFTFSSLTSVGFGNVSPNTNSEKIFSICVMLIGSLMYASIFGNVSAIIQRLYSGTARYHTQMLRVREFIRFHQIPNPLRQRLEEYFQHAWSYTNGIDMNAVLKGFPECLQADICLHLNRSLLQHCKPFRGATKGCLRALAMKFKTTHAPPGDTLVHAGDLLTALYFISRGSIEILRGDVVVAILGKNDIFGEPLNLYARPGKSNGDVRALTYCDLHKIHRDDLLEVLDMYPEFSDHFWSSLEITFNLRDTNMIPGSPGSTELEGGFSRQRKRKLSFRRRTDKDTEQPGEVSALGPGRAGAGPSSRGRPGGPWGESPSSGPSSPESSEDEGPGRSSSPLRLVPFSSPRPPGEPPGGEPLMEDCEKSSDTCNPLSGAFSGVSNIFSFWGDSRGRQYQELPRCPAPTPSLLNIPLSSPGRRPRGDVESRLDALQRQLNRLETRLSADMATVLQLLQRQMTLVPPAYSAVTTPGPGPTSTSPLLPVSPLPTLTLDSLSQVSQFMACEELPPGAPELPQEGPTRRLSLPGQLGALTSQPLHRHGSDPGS
Assay: Functional Potency (IC50) on Human Receptors: hERG
Format: biochemical
PROPERTY NAME: IC50 (µM)
Reply numerically in µM, unit not repeated.

IC50 measured on C[C@@]1(O)CC2CC1[C@@H]1C(=O)N(CC3CCCC[C@H]3CN3CCN(c4nsc5ccccc45)CC3)C(=O)[C@H]21 (stereo in doubt) = 4
